These measurements were taken from PubChem BioAssay.

A collection of compounds and their measured z-score
Assay: A549 cell viability effects, profiling panel, calcein-AM fluorescence, 48 h, basal (AID 1162); note: test concentration not given here
Settings: higher = more signal
Keep the answer to the number alone.

Given CCN1C(=O)[C@H]2[C@H]3[C@H](O)[C@H](O)CC(=NNC(=O)OCc4ccc(OC)cc4)[C@H]3CC[C@H]2C1=O , respond with its z-score.
0.173

Given C[C@@H](ON=C1[C@H]2CCn3c(=O)n(-c4ccccc4)c(=O)n3[C@H]2[C@H](O)[C@@H]2O[C@H]12)c1cn([C@H](CO)Cc2ccccc2)nn1 , respond with its z-score.
0.158

Given C#CCCCON=C1C[C@@H](O)[C@@H](O)[C@@H]2[C@@H]3C(=O)N(C4CCCCC4)C(=O)[C@@H]3CC[C@H]12 , respond with its z-score.
-0.0446

Given C=C(C)C(=O)OC[C@@H]1CN2[C@@H](CC[C@@H](C)[C@@H]2c2ccc(Br)cc2)C(=O)O1 , respond with its z-score.
0.254

Given COc1ccc(COC(=O)NN=C2C[C@@H](O)[C@@H](O)[C@@H]3[C@@H]4C(=O)N(C(C)(C)C)C(=O)[C@@H]4CC[C@H]23)cc1 , respond with its z-score.
0.894

Given CCOC(=O)CCN1C(=O)[C@H]2[C@H]3[C@H](O)[C@H](O)CC(=NNC(=O)OCC)[C@@H]3CC[C@H]2C1=O , respond with its z-score.
0.241

====

A collection of molecules and their measured composite z-score
Assay: compound binding in COS7 lysate, probe aLAP1, primary screen, cell lysate, small-molecule microarray (AID 1124);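 note: lysate comes from COS7 cells expressing LAP1 and is applied at 0.3 µg/mL; score merges spot fluorescence near 667 nm with signal-to-noise over triplicate slides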
Conditions: probe aLAP1, fluorescence, higher = more signal
Keep the answer to the number alone.

{"Molecule": "C[C@@H]1CC[C@@H](C(=O)O)N[C@H]1c1ccc(-c2ccco2)cc1", "composite z-score": -0.103}
{"Molecule": "Cc1ccc(S(=O)(=O)N[C@H]2COC(=O)[C@@H](C)COC(=O)[C@H](C)NC(=O)CC=C[C@H]2C)cc1", "composite z-score": -0.34}
{"Molecule": "CC(C)C(=O)N[C@@H]1CCCN1C(=O)C=Cc1ccccc1", "composite z-score": -0.086}
{"Molecule": "CC(C)=NOCc1ccc(-c2cn([C@@H]3COC[C@H]3O)nn2)cc1", "composite z-score": -0.116}
{"Molecule": "CCOC(=O)[C@H](CC(C)C)NC(=O)CCC1CC(OC(=O)NCc2cccc3ccccc23)CC2(CCCC(COC(=O)NCc3ccccc3)O2)O1 (stereo partly specified)", "composite z-score": -0.384}

Given O=C(NN=C1C[C@@H](O)[C@@H](O)[C@@H]2[C@@H]3C(=O)N(Cc4ccc5c(c4)OCO5)C(=O)[C@@H]3CC[C@H]12)OCc1ccccc1 , respond with its composite z-score.
-0.21

====

A collection of compounds and their measured composite z-score
Target: Torsin-1A-interacting protein 1 (Homo sapiens) (UniProt Q5JTV8)
Sequence (Q5JTV8 whole entry, looked up): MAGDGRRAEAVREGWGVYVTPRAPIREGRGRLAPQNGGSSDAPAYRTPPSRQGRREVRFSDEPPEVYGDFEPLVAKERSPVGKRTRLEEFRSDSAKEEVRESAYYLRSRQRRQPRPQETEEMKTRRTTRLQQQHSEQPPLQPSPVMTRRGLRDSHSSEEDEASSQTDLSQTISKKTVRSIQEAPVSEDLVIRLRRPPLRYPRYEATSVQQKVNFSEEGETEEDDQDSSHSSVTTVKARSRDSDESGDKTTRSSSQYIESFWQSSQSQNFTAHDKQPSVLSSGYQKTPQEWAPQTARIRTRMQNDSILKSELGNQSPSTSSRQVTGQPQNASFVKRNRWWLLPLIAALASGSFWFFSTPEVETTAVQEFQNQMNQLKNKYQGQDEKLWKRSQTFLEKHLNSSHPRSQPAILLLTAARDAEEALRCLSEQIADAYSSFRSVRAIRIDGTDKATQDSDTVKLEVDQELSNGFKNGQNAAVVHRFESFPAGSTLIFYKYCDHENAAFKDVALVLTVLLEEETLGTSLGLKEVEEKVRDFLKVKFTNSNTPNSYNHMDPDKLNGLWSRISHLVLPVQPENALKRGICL
Assay: LAP1 binders from COS7 cell lysate, primary screen, small-molecule microarray, 635/667 nm fluorescence (AID 1116)
Conditions: COS7-hLAP1 lysate binding, 635 nm fluorescence, higher = more signal

For orientation, consider the following solved cases.
{"Compound": "CC(=O)OC[C@H]1O[C@H](C#CC(C)(C)C)C=C[C@@H]1OC(C)=O", "composite z-score": 0.852}
{"Compound": "COC(=O)[C@H](C)NC(=O)CCC1CC(OC(=O)NCCc2ccc(F)cc2)CC2(CCCC(COC(=O)NCCCN3CCCC3=O)O2)O1 (stereo partly drawn)", "composite z-score": 1.05}
{"Compound": "CCOC(=O)[C@H](CC(C)C)NC(=O)CCC1CC(OC(=O)NCc2cccc3ccccc23)CC2(CCCC(COC(=O)NCc3ccccc3)O2)O1 (stereo partly drawn)", "composite z-score": -0.61}
{"Compound": "CC(C)=NOC[C@@H](O)COCc1ccco1", "composite z-score": -0.2}
{"Compound": "CCOC(=O)NN=C1C[C@@H](O)[C@@H](O)[C@@H]2[C@@H]3C(=O)N(Cc4ccccc4)C(=O)[C@@H]3CC[C@@H]12", "composite z-score": 0.297}

Given C[C@@H](ON=C1[C@H]2CCn3c(=O)n(-c4ccccc4)c(=O)n3[C@H]2[C@H](O)[C@@H]2O[C@H]12)c1cn([C@H](CO)Cc2ccccc2)nn1 , respond with its composite z-score.
-0.0609

Given CCOC(=O)CCN1C(=O)[C@H]2[C@H]3[C@H](O)[C@H](O)CC(=NNC(=O)OCC)[C@@H]3CC[C@H]2C1=O , respond with its composite z-score.
-0.0895

Given C[C@@H](c1ccccc1)N1C(=O)[C@H]2[C@H]3[C@H](O)[C@H](O)CC(=O)[C@@H]3CC[C@H]2C1=O , respond with its composite z-score.
0.49

====

Test: PSAC antagonists in infected red cells, primary screen, cell-based, P. falciparum Indochina, OD700, 1 h (AID 1154)
Conditions: P. falciparum Indochina infected RBC osmotic lysis, higher = more signal, called active from +8 up or from −8 down
z-score below 1 gives Condition not met; z-score at or above it gives Condition met.

Observe how each entry below is paired with its result.
{"Compound": "CC(C)OC(=O)C=C1C[C@@H](c2cccc(C(F)(F)F)c2)O[C@@H](c2cccc(C(F)(F)F)c2)O1", "Classification": "Condition met"}
{"Compound": "CCCNC(=O)OC[C@H]1O[C@H](CCON=C(C)CCC(=O)OC[C@H]2O[C@H](C#Cc3ccccc3)C=C[C@@H]2Oc2ccc(C)cc2)C=C[C@@H]1Oc1ccc(OC)cc1", "Classification": "Condition not met"}

hey, is z-score for this one >= 1? CC(C)=NOCc1ccc(-c2cn([C@@H]3COC[C@H]3O)nn2)cc1
Condition met

hey, is z-score for this one >= 1? COC(=O)[C@H](C)NC(=O)CCC1CC(OC(=O)NCCc2ccc(F)cc2)CC2(CCCC(COC(=O)NCCCN3CCCC3=O)O2)O1 (some centres not stated)
Condition not met

hey, is z-score for this one >= 1? CCOC(=O)NN=C1C[C@@H](O)[C@@H](O)[C@@H]2[C@@H]3C(=O)N(Cc4ccccc4)C(=O)[C@@H]3CC[C@@H]12
Condition met

hey, is z-score for this one >= 1? CC(C)CON=C1C[C@@H](O)[C@@H](O)[C@@H]2[C@@H]3C(=O)N(c4cccc(Oc5ccccc5)c4)C(=O)[C@@H]3CC[C@H]12
Condition not met

====

Assay: anti-His antibody binders, primary screen, artefact control for SMM control protein annotation, biochemical, small-molecule microarray, 635 nm fluorescence (AID 1128);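 note: score merges feature fluorescence with signal-to-noise for each printed compound spot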
Conditions: anti-His Alexa647 antibody binding, higher = more signal
Reported Property: composite z-score
Keep the answer to the number alone.

{"Compound": "CC(=O)OC[C@H]1O[C@H](C#CC(C)(C)C)C=C[C@@H]1OC(C)=O", "composite z-score": 0.726}
{"Compound": "C=C(C)C(=O)OC[C@@H]1CN2[C@@H](CC[C@@H](C)[C@@H]2c2ccc(Br)cc2)C(=O)O1", "composite z-score": -0.0452}
{"Compound": "CCCNC(=O)OC[C@H]1O[C@H](CCON=C(C)CCN2CCc3nc(-c4ccccc4)c(-c4ccccc4)cc3C2)C=C[C@@H]1Oc1ccc(OC)cc1", "composite z-score": 1.29}
{"Compound": "C#CCCCON=C1C[C@@H](O)[C@@H](O)[C@@H]2[C@@H]3C(=O)N(C4CCCCC4)C(=O)[C@@H]3CC[C@H]12", "composite z-score": 1.31}
{"Compound": "CCOC(=O)NN=C1C[C@@H](O)[C@@H](O)[C@@H]2[C@@H]3C(=O)N(Cc4ccc5c(c4)OCO5)C(=O)[C@@H]3CC[C@@H]12", "composite z-score": 0.0648}

Given CCCNC(=O)OC[C@H]1O[C@H](CCON=C(C)CCC(=O)OC[C@H]2O[C@H](C#Cc3ccccc3)C=C[C@@H]2Oc2ccc(C)cc2)C=C[C@@H]1Oc1ccc(OC)cc1 , respond with its composite z-score.
0.0888

Given COc1ccc(COC(=O)NN=C2C[C@@H](O)[C@@H](O)[C@@H]3[C@@H]4C(=O)N(C(C)(C)C)C(=O)[C@@H]4CC[C@H]23)cc1 , respond with its composite z-score.
1.34

Given CO[C@@H]1COC(=O)CC=C[C@H](C)COC(=O)[C@H](C)NC(=O)CC=C[C@H]1C , respond with its composite z-score.
0.401

Given CCN1C(=O)[C@H]2[C@H]3[C@H](O)[C@H](O)CC(=NOC)[C@@H]3CC[C@H]2C1=O , respond with its composite z-score.
-0.121

====

Assay: basal 3T3-L1 adipocyte mitochondrial potential changes, profiling panel, cell-based, JC-1 fluorescence, 3T3-L1 adipocytes, 24 h, 100 nL compound (AID 1168); note: test concentration not given here
Settings: JC-1 mitochondrial fluorescence, higher = more signal, called active from +8 up or from −8 down
A collection of molecules and their measured z-score
Keep the answer to the number alone.

For orientation, consider the following solved cases.
{"Molecule": "CCOC(=O)NN=C1C[C@@H](O)[C@@H](O)[C@@H]2[C@@H]3C(=O)N(Cc4ccccc4)C(=O)[C@@H]3CC[C@@H]12", "Reported Value": 0.152}
{"Molecule": "CCOC(=O)[C@H](Cc1ccccc1)NC(=O)CCC1CC(OC(=O)NCc2cccc3ccccc23)CC2(CCCC(COC(=O)NCCCN3CCCC3=O)O2)O1 (some centres undefined)", "Reported Value": 0.17}

Given CO[C@@H]1C=CCC(=O)N2CCC[C@H]2C(=O)OC[C@H](C)C(=O)OC[C@H]1C , respond with its z-score.
0.673

Given C[C@@H]1CC[C@@H](C(=O)O)N[C@H]1c1ccc(-c2ccco2)cc1 , respond with its z-score.
0.309
